Tested on: S. aureus ATCC strains and MRSA
Assay type: cell-based, Staphylococcus aureus
Details: Sa15 (MRSA)
VALUE TYPE: Antibiotic susceptibility

Worked examples, 5 compounds total:
Cc1onc(-c2ccccc2)c1C(=O)N[C@@H]1C(=O)N2[C@@H]1SC(C)(C)[C@@H]2C(=O)O [OXA, Oxacillin] : R
CO[C@H]1/C=C/O[C@@]2(C)Oc3c(C)c(O)c4c(O)c(c(/C=N/N5CCN(C)CC5)c(O)c4c3C2=O)NC(=O)/C(C)=C\C=C\[C@H](C)[C@H](O)[C@@H](C)[C@@H](O)[C@@H](C)[C@H](OC(C)=O)[C@@H]1C [RIF, Rifampin] : R
O=C(O)c1cn(C2CC2)c2cc(N3CCNCC3)c(F)cc2c1=O [Compound 67, Ciprofloxacin] : R
CC[C@H]1OC(=O)[C@H](C)[C@@H](O[C@H]2C[C@@](C)(OC)[C@@H](O)[C@H](C)O2)[C@H](C)[C@@H](O[C@@H]2O[C@H](C)C[C@H](N(C)C)[C@H]2O)[C@](C)(O)C[C@@H](C)C(=O)[C@H](C)[C@@H](O)[C@]1(C)O [ERY, erythromycin] : R
CN(C)c1cc(NC(=O)CNC(C)(C)C)c(O)c2c1C[C@H]1C[C@H]3[C@H](N(C)C)C(O)=C(C(N)=O)C(=O)[C@@]3(O)C(O)=C1C2=O [TGC, Tigecycline] : S

Now for the compound whose Antibiotic susceptibility we want.
S. aureus ATCC strains and MRSA Antibiotic susceptibility of C[C@H]1c2cccc(O)c2C(=O)C2=C(O)[C@]3(O)C(=O)C(C(N)=O)=C(O)[C@@H](N(C)C)[C@@H]3[C@@H](O)[C@@H]21 [DOX, doxycycline] is S

###

Test: Cytotoxicity assay (CC50), MTS
Type: cell-based, human
Conditions: human, HepG2-derived hepatoblastoma cell line (HEPDES19), HEPDES19 cells
Please go through the items and note down their CC50.

Given item Cc1ccc(C(=O)Sc2cccccc2=O)cc1 , the value recorded as its CC50 is > 50 µM

The value of CC50 measured for the compound Cc1cc(O)c(=O)c(O)cc1-c1ccc(Br)cc1 turned out to be < 50 µM

CC50 measured on Cc1cc(O)c(=O)c(O)cc1C(=O)C1CCCCC1 = < 50 µM

Lab book: CC50 of O=c1c(Br)cc(Br)cc(Br)c1O noted as < 50 µM

For this compound ( Cc1cc(O)c(=O)c(O)cc1C(=O)c1cccs1 ), measured CC50 is < 50 µM

# CC50 (compound: CC1=C(C#N)C(O)=NC(=O)/C1=C\c1ccc(-c2ccccc2)o1 ) is < 50 µM

The compound O=c1c(O)ccc(-c2ccccc2)cc1O showed CC50 equal to > 50 µM

So for O=C(Oc1cccccc1=O)c1ccc([N+](=O)[O-])cc1 , the logged CC50 turned out to be > 50 µM

Looking up O=C(Oc1cccccc1=O)c1ccc(Cl)cc1 , I see its CC50 listed as > 50 µM

CC50 recorded for this compound, O=c1ccc2ccccc2n1O , is > 50 µM

###

Tested on: S. aureus ATCC strains and MRSA
Assay type: cell-based, Staphylococcus aureus
Conditions: Sa10 (MRSA)
VALUE TYPE: Antibiotic susceptibility

CN[C@H](CC(C)C)C(=O)N[C@H]1C(=O)N[C@@H](CC(N)=O)C(=O)N[C@H]2C(=O)N[C@H]3C(=O)N[C@H](C(=O)N[C@H](C(=O)O)c4cc(O)cc(O)c4-c4cc3ccc4O)[C@H](O)c3ccc(c(Cl)c3)Oc3cc2cc(c3O[C@@H]2O[C@H](CO)[C@@H](O)[C@H](O)[C@H]2O[C@H]2C[C@](C)(N)[C@H](O)[C@H](C)O2)Oc2ccc(cc2Cl)[C@H]1O [VAN, vancomycin] : S
O=C(O)c1cn(C2CC2)c2cc(N3CCNCC3)c(F)cc2c1=O [Compound 67, Ciprofloxacin] : R

###

Tested on: S. aureus ATCC strains and MRSA
Format: cell-based, Staphylococcus aureus
Details: Sa9 (MRSA)
VALUE TYPE: Antibiotic susceptibility

CN(C)c1cc(NC(=O)CNC(C)(C)C)c(O)c2c1C[C@H]1C[C@H]3[C@H](N(C)C)C(O)=C(C(N)=O)C(=O)[C@@]3(O)C(O)=C1C2=O : S
CN[C@H](CC(C)C)C(=O)N[C@H]1C(=O)N[C@@H](CC(N)=O)C(=O)N[C@H]2C(=O)N[C@H]3C(=O)N[C@H](C(=O)N[C@H](C(=O)O)c4cc(O)cc(O)c4-c4cc3ccc4O)[C@H](O)c3ccc(c(Cl)c3)Oc3cc2cc(c3O[C@@H]2O[C@H](CO)[C@@H](O)[C@H](O)[C@H]2O[C@H]2C[C@](C)(N)[C@H](O)[C@H](C)O2)Oc2ccc(cc2Cl)[C@H]1O : S
Cc1onc(-c2ccccc2)c1C(=O)N[C@@H]1C(=O)N2[C@@H]1SC(C)(C)[C@@H]2C(=O)O : R
CCC[C@@H]1C[C@@H](C(=O)N[C@@H]([C@H]2O[C@H](SC)[C@H](O)[C@@H](O)[C@H]2O)[C@H](C)Cl)N(C)C1 : R

Attention now shifts to the item below.
CN(C)[C@@H]1C(O)=C(C(N)=O)C(=O)[C@@]2(O)C(O)=C3C(=O)c4c(O)cccc4[C@@](C)(O)[C@H]3C[C@@H]12 yielded Antibiotic susceptibility of S

###

Test system: S. aureus ATCC strains and MRSA
Type: cell-based, Staphylococcus aureus
Settings: Sa9 (MRSA)
VALUE TYPE: Antibiotic susceptibility

For orientation, consider the following solved cases.
O=C(O)c1cn(C2CC2)c2cc(N3CCNCC3)c(F)cc2c1=O : R
C[C@H]1c2cccc(O)c2C(=O)C2=C(O)[C@]3(O)C(=O)C(C(N)=O)=C(O)[C@@H](N(C)C)[C@@H]3[C@@H](O)[C@@H]21 : S
COc1c(N2C[C@@H]3CCCN[C@@H]3C2)c(F)cc2c(=O)c(C(=O)O)cn(C3CC3)c12 : R
C[C@H]1COc2c(N3CCN(C)CC3)c(F)cc3c(=O)c(C(=O)O)cn1c23 : R

Now turn to the next compound.
S. aureus ATCC strains and MRSA data for CC(=O)NC[C@H]1CN(c2ccc(N3CCOCC3)c(F)c2)C(=O)O1 ; its Antibiotic susceptibility: S

###

Tested on: Enterobacter cloacae complex
Experiment: Antibiotic susceptibility of Enterobacter cloacae complex strain
Assay type: cell-based
Details: Ecc1 (Enterobacter cloacae complex)
VALUE TYPE: Antibiotic susceptibility

CO/N=C(\C(=O)N[C@@H]1C(=O)N2C(C(=O)O)=C(CSc3nc(=O)c(=O)[nH]n3C)CS[C@H]12)c1csc(N)n1 : R
C[C@@H](O)[C@H]1C(=O)N2C(C(=O)O)=C(SCCN=CN)C[C@H]12 : S
C[C@@H](O)[C@H]1C(=O)N2C(C(=O)O)=C(S[C@@H]3CN[C@H](C(=O)Nc4cccc(C(=O)O)c4)C3)[C@H](C)[C@H]12 : S
O=C1CN(/N=C/c2ccc([N+](=O)[O-])o2)C(=O)N1 : S

get_value(item= C[C@@H](O)[C@H]1C(=O)N2C(C(=O)O)=C(S[C@@H]3CN[C@H](C(=O)N(C)C)C3)[C@H](C)[C@H]12 , readout=Antibiotic susceptibility) returns S

Entry CC(C)(O/N=C(\C(=O)N[C@@H]1C(=O)N2C(C(=O)[O-])=C(C[n+]3ccccc3)CS[C@H]12)c1csc(N)n1)C(=O)O ; Antibiotic susceptibility = R

Reported Antibiotic susceptibility for C[C@H]1COc2c(N3CCN(C)CC3)c(F)cc3c(=O)c(C(=O)O)cn1c23 was S

Consider NC[C@H]1O[C@H](O[C@H]2[C@H](O)[C@@H](O[C@H]3O[C@H](CO)[C@@H](O)[C@H](N)[C@H]3O)[C@H](N)C[C@@H]2N)[C@H](N)C[C@@H]1O . Its measured Antibiotic susceptibility is S

###

What MIC80 was measured for each of the following?
Tested on: S. aureus (ATCC 29213)
Assay: MIC80 on S. aureus
Assay type: cell-based, Staphylococcus aureus
Conditions: Staphylococcus aureus, ATCC 29213 / MSSA, read-out: MIC80 S. aureus, S. aureus ATCC 29213 (MSSA); ≥80% growth inhibition

get_value(item= O=C(Oc1cccccc1=O)c1ccc([N+](=O)[O-])cc1 , readout=MIC80) returns 16.5 µM

Given item Cc1cc(O)c(=O)c(O)cc1-c1ccc(Br)cc1 , the value recorded as its MIC80 is 19.8 µM

Data point: Cc1cc(O)c(=O)c(O)cc1C(=O)c1ccccc1O ; MIC80 = 66.7 µM

In plain terms, O=c1c(Br)cc(Br)cc(Br)c1O has a documented MIC80 of 2.6 µM

Record O=C(O)c1cn(C2CC2)c2cc(N3CCNCC3)c(F)cc2c1=O . Reported MIC80: < 2.9 µM

Lab book: MIC80 of O=C(Oc1cccccc1=O)c1cccc(Cl)c1 noted as 18.2 µM

Noted for CC1=C(C#N)C(O)=NC(=O)/C1=C\c1ccc(-c2ccccc2)o1 : its MIC80 reads 3.9 µM

For CC(C)c1ccc(O)c(=O)c(O)c1 the compound record lists MIC80 as 19.8 µM

Quick note, MIC80 for O=C(Sc1cccccc1=O)c1ccccc1 landed at 13.2 µM

Hello, the source for this data is patent US12502362B2, in case you need it.
